Hi, quick share: literature pKi data for Coagulation factor X (Homo sapiens, UniProt P00742), several sources combined.
pKi: −log10 of the molar value.
I would appreciate it if you labelled entries 1 (yes) when pKi is 7 or higher, otherwise 0 (no).

molecule: N/C(=N\O)c1ccc(CN(NS(=O)(=O)c2ccc3ccccc3c2)C(=O)N2CCCCC2)cc1
targetSystem: Coagulation factor X (Homo sapiens, UniProt P00742)
assignedLabel: 0 (no)
//
molecule: COc1cc2nc([C@@H](CNC(=O)c3c(Cl)cc(-n4cnc(C)n4)cc3Cl)c3cccc(F)c3)[nH]c2cc1Cl
targetSystem: Coagulation factor X (Homo sapiens, UniProt P00742)
assignedLabel: 0 (no)
//
molecule: Cc1c(F)c(Oc2cccc(NC(N)=O)c2)nc(Oc2cccc(C(=N)N)c2)c1F
targetSystem: Coagulation factor X (Homo sapiens, UniProt P00742)
assignedLabel: 0 (no)
//
molecule: N=C(N)c1cccc(Oc2ccc(N)c(Oc3cccc(C(=N)N)c3)n2)c1
targetSystem: Coagulation factor X (Homo sapiens, UniProt P00742)
assignedLabel: 1 (yes)
//
molecule: CC(C(=O)Nc1ccc(-n2cnc3ccccc32)cc1)c1c[nH]c2ccc(C(=N)N)cc12 (centres undefined)
targetSystem: Coagulation factor X (Homo sapiens, UniProt P00742)
assignedLabel: 1 (yes)
//
molecule: Cc1c(F)c(Oc2cccc(C(=N)N)c2)nc(Oc2cccc(C(=O)N(C)C)c2O)c1F
targetSystem: Coagulation factor X (Homo sapiens, UniProt P00742)
assignedLabel: 0 (no)
//
molecule: CC(=O)Nc1ccc(Oc2cccc(C(=N)N)c2)nc1Oc1cccc(C(=N)N)c1
targetSystem: Coagulation factor X (Homo sapiens, UniProt P00742)
assignedLabel: 1 (yes)
//
molecule: CN1CCN=C1c1ccc(NC(=O)c2cc(C(F)(F)F)nn2-c2ccc3cc(Cl)ccc3c2)c(F)c1
targetSystem: Coagulation factor X (Homo sapiens, UniProt P00742)
assignedLabel: 1 (yes)

* * *

Hi, quick share: literature Ki data for Coagulation factor X (Homo sapiens, UniProt P00742), several sources combined.
assayReadout: Ki (nM)

compound: COC(=O)[C@H](Cc1cccc(C(=N)N)c1)[C@@H](C)NC(=O)c1ccc(-c2ccc(C(=O)O)cc2)cc1
assayReadout: Ki
readoutUnits: nM
censoringSign: =
valueMeasured: 69
--
compound: N=C(N)c1cccc([C@@H]2CN(Cc3ccc(-c4ccccc4S(N)(=O)=O)cc3)C[C@H]2C(=O)O)c1
assayReadout: Ki
readoutUnits: nM
censoringSign: =
valueMeasured: 600
--
compound: CN(CC(=O)N[C@@H](CCCCN)C(=O)C(=O)NCCN1CCOCC1)C(=O)c1ccccc1Sc1ccccc1C#N
assayReadout: Ki
readoutUnits: nM
censoringSign: =
valueMeasured: 200
--
compound: N=C(N)c1cccc(C[C@H](NS(=O)(=O)c2ccc3ccccc3c2)C(=O)N2CCCCCC2)c1
assayReadout: Ki
readoutUnits: nM
censoringSign: =
valueMeasured: 26000
--
compound: Nc1ncc(C(=O)NC[C@H]2CN(c3ccc(N4CCC(C(=O)O)CC4)cc3)C(=O)O2)s1.O=C(O)C(F)(F)F
assayReadout: Ki
readoutUnits: nM
censoringSign: =
valueMeasured: 48800
--
compound: N=C(N)c1cccc(Oc2ccc(C(=O)NCC(N)=O)c(Oc3cccc(C(=N)N)c3)n2)c1
assayReadout: Ki
readoutUnits: nM
censoringSign: =
valueMeasured: 690
--
compound: N=C(N)c1cccc(Cn2c(C(=O)Nc3cc(Cl)cc(Cl)c3)cc3c(O)cccc32)c1
assayReadout: Ki
readoutUnits: nM
censoringSign: =
valueMeasured: 798
--
compound: O=C(NCC1CCc2ncncc2C1)[C@@H]1CCCN1C(=O)[C@@H](CC1CCCCC1)NS(=O)(=O)Cc1ccccc1 (some centres not stated)
assayReadout: Ki
readoutUnits: nM
censoringSign: =
valueMeasured: 111000
--
compound: COC(=O)[C@H]1CCCCC1NNC(=O)C(Cc1ccccc1)c1csc2ccc(C(=N)N)cc12 (some centres not stated)
assayReadout: Ki
readoutUnits: nM
censoringSign: =
valueMeasured: 300
--
compound: COc1ccc2ccc(S(=O)(=O)NC3CCN(Cc4cc(N)cc(C(=N)N)c4)C3=O)cc2c1 (configuration not stated)
assayReadout: Ki
readoutUnits: nM
censoringSign: =
valueMeasured: 1260
--
compound: O=C(NC[C@@H]1CN(c2ccc(N3CCC(C(=O)O)CC3)cc2)C(=O)O1)c1ccc(-c2noc(=O)[nH]2)cc1
assayReadout: Ki
readoutUnits: nM
censoringSign: >
valueMeasured: 100000
--
compound: Cc1c(F)c(Oc2cccc(C(=N)N)c2)nc(N2CCN(c3ccc4c(c3)OCO4)CC2)c1F
assayReadout: Ki
readoutUnits: nM
censoringSign: >
valueMeasured: 5000
--
compound: N=C(N)c1cccc(C(=O)NC(C(=O)NCC2CCC(CN)CC2)c2ccc(Cl)cc2)c1 (configuration not stated)
assayReadout: Ki
readoutUnits: nM
censoringSign: =
valueMeasured: 2500
--
compound: N=C(N)c1ccc(O)c(/C=C/CNc2ccc(OC3CCN(C(N)=O)CC3)c(C(F)(F)F)c2)c1
assayReadout: Ki
readoutUnits: nM
censoringSign: =
valueMeasured: 7.3
--
compound: Nc1ccccc1-c1ccc(C(=O)Nc2ccc(Cl)cc2C(=O)Nc2ccc(Cl)cn2)cc1
assayReadout: Ki
readoutUnits: nM
censoringSign: =
valueMeasured: 0.2
--
compound: Cc1cc(C(=O)Nc2ccc(-c3ccccc3S(N)(=O)=O)cc2)n(-c2ccc3[nH]nc(N)c3c2)n1
assayReadout: Ki
readoutUnits: nM
censoringSign: =
valueMeasured: 29
--
compound: C[n+]1ccc(CNC(=O)c2cc3cc(F)ccc3n2Cc2cccc(C(=N)N)c2)cc1
assayReadout: Ki
readoutUnits: nM
censoringSign: =
valueMeasured: 360
